- Method: 14C assay with IPTG-induced recombinant E. coli cells (14CO2 capture from [14C]-carboxyl-labeled dicamba)
- Test Settings: IPTG-induced recombinant E. coli cells; [14C]-carboxyl-labeled dicamba; 14CO2 capture

[
  {
    "Molecule": "78 (protein, listed as Marinobacter adhaerens) MALIDLHAHAPHPDYYDQHPHWGPAFELQSDGDIKLRVGHWVLSLGAPERKQALREAHARGETLDVQEYMAKWRDPEHRLASMDAAGQNAQVLSVPSHCYMYWAEPEFGVPFAKKVNDSLAEYCSAAPDRLMFWAHAPLNVPKEAAKEIRRACTELGAKGLVAGGSNFGGLEFDSPEMDPVWEALCDLDLPMFVHGYNQSVTWGEEANTDRYETTAIVGMNYDESKCFWYMINGGVFDRFPNLKVYITHGGGFVPYQLGRMAQTNPNLDTYHNKKPFLEYLKNFYFDVELHEVPMRQAMVEVIGADRVLYGSNFGGSDAVRHDLTDDLKLSQEDLDKIRWKNACDLLHLDPNKLGKVRG",
    "Dicamba Decarboxylase Activity": "Low"
  }
]
